Listed below: hERG Patch Clamp hERG % blk (10 μM test cmpd) values for each entry.
Assayed system: hERG potassium channel (Homo sapiens, UniProt Q12809)
Sequence (Q12809 whole entry): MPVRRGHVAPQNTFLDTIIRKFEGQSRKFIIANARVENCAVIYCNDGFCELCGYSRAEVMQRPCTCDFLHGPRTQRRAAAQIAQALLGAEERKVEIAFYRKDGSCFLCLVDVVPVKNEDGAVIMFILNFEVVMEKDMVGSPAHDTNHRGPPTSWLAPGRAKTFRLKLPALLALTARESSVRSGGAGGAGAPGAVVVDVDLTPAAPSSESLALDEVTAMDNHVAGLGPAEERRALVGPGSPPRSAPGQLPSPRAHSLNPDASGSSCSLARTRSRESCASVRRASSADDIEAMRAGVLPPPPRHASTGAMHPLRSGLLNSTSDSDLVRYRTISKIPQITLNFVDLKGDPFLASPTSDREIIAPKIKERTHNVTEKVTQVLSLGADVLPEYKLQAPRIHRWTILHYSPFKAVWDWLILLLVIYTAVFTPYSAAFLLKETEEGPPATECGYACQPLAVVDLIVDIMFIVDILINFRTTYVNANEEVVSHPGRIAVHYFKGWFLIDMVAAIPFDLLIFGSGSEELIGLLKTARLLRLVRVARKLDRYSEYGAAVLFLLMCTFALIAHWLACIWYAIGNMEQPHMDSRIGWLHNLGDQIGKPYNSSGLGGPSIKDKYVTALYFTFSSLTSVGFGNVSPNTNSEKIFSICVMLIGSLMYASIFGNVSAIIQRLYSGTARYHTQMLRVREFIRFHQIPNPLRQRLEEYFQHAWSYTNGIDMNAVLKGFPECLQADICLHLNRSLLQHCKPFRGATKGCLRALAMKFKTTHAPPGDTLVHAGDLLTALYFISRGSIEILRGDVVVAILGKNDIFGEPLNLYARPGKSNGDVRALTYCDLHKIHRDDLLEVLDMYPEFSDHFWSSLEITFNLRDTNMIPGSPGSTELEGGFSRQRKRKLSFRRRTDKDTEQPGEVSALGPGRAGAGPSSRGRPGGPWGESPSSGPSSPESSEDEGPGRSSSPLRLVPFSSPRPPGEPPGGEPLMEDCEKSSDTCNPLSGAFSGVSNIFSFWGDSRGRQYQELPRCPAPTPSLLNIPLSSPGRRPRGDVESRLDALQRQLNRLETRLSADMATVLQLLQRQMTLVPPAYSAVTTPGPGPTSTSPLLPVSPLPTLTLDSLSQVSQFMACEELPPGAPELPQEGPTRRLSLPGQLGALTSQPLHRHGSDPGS
Measurement description: hERG screening assay (PatchXpress patch clamp, CHO cells)
Setup conditions: 10 μM test cmpd
Measured endpoint: hERG Patch Clamp hERG % blk (10 μM test cmpd) (%)

- CC1=C(C(=O)OCc2ccccc2)C(c2ccccc2-c2cccc(NS(C)(=O)=O)c2)n2nnnc2N1 (stereo not shown): 38.5
- CC1=C(C(=O)OCc2ccccc2)C(c2ccccc2-c2ccc(C(=O)O)cc2)C2=C(CCCC2=O)N1 (stereo not shown): 15.5
- CCOC(=O)C1=C(C)NC2=C(C(=O)CCC2)C1c1cccc2ncccc12 (stereo not shown): 34.5
- CC1=C(C(=O)OC2CCc3ccccc32)C(c2cccc3ccccc23)n2nnnc2N1 (stereo not shown): 14
